ASSAY COMMENT: amyloid nucleation score (Sup35N fusion, yeast selection) (log enrichment); library NNK3; higher = more nucleation; inactive = no reads after selection;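 note: zero at mode of non-aggregating sequences after 7 days selection at 30°C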
OUTCOME MEASURE: amyloid nucleation score

Below are worked cases with known answers.
substance=LDERCLLVGMAYMLVCY observed_value=inactive
substance=VLVVCSLSAC observed_value=inactive
substance=VSESSFRLCGGLRSGCLKSA observed_value=inactive
substance=LSDVDPEFLFLLLFFP observed_value=inactive
substance=FVLKRYRCFLYLVQYDISTL observed_value=-0.326
substance=YIMDLKITANVLTYVACARR observed_value=1.4
substance=FLYSVL observed_value=inactive
substance=LLSHYFHGMCMTHISGIFVM observed_value=inactive
substance=LVVIWSRYSPRRNYPVTSNM observed_value=0.679
substance=SDRYDCRDGSCFNRKVRYSL observed_value=inactive

If you can, please state the reported amyloid nucleation score value of GSATCAS .
inactive

If you can, please state the reported amyloid nucleation score value of CINIGVMDEWGVAVTLLVKN .
inactive

If you can, please state the reported amyloid nucleation score value of FMMFIL .
1.42

If you can, please state the reported amyloid nucleation score value of VINRST .
0.979

If you can, please state the reported amyloid nucleation score value of LRGCVNAYLRYHTRGLVVLR .
inactive

If you can, please state the reported amyloid nucleation score value of VVCMDLCFLAGSSMSDLDGC .
inactive

If you can, please state the reported amyloid nucleation score value of RCRTDILYNFERHYLRVEYA .
inactive

If you can, please state the reported amyloid nucleation score value of CMVSYASDTGGKESELACVV .
inactive

If you can, please state the reported amyloid nucleation score value of CAAIRGKL .
inactive

If you can, please state the reported amyloid nucleation score value of GNSAYK .
inactive

If you can, please state the reported amyloid nucleation score value of LDLDSNIGFISVLPF .
inactive

If you can, please state the reported amyloid nucleation score value of SIESMCPVYILVVAPEMCR .
inactive
